Biological target: human TAS2R4 (Homo sapiens, UniProt Q9NYW5)
Construct: expressed in transfected cells; host or cells: HEK293T-Gα16gust44
Sequence (Q9NYW5 whole entry): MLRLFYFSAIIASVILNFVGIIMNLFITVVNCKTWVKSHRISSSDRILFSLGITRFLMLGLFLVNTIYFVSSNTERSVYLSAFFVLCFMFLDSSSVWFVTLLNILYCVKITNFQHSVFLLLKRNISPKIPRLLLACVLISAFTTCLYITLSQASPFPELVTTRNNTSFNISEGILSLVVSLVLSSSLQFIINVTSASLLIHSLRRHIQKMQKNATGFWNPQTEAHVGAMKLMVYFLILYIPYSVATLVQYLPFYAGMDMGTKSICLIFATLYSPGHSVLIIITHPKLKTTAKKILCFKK
Test: Calcium imaging assay (FLIPR), HEK293T-Gα16gust44 cells transfected with human TAS2R4
Type: cell-based
Conditions: Time (s) 132.781 (TCA, TLCA: 132.782)
Property name: RLU, fluorescence trace
Note: state the figure and append the unit.

Below, each entry is followed by its recorded RLU, fluorescence trace result.
                               query_smiles                         system_under_test            property_name  reported_value
0  C[C@H](CCC(=O)NCCS(=O)(=O)O)[C@H]1CC[C@H]2[C@@H]3CC[C@@H]4C[C@H](O)CC[C@]4(C)[C@H]3CC[C@]12C  human TAS2R4 (Homo sapiens, UniProt Q9NYW5)  RLU, fluorescence trace     259.914 RLU
1  C[C@H](CCC(=O)NCCS(=O)(=O)O)[C@H]1CC[C@H]2[C@@H]3[C@H](O)C[C@@H]4C[C@H](O)CC[C@]4(C)[C@H]3C[C@H](O)[C@]12C  human TAS2R4 (Homo sapiens, UniProt Q9NYW5)  RLU, fluorescence trace     555.387 RLU
2  C[C@H](CCC(=O)O)[C@H]1CC[C@H]2[C@@H]3CC[C@@H]4C[C@H](O)CC[C@]4(C)[C@H]3C[C@H](O)[C@]12C  human TAS2R4 (Homo sapiens, UniProt Q9NYW5)  RLU, fluorescence trace     335.417 RLU
3  C[C@H](CCC(=O)O)[C@H]1CC[C@H]2[C@@H]3[C@H](O)C[C@@H]4C[C@H](O)CC[C@]4(C)[C@H]3C[C@H](O)[C@]12C  human TAS2R4 (Homo sapiens, UniProt Q9NYW5)  RLU, fluorescence trace     460.578 RLU

Which RLU, fluorescence trace value is on record for `C[C@H](CCC(=O)O)[C@H]1CC[C@H]2[C@@H]3[C@@H](O)C[C@@H]4C[C@H](O)CC[C@]4(C)[C@H]3CC[C@]12C` ?
216.307 RLU

====

System: HEK293T-Gα16gust44 cells transfected with empty vector (mock)
Assay: Calcium imaging assay (FLIPR), empty vector control (mock)
Assay type: cell-based
Conditions: Mock, sheet TAS2R14; conc. 0,01 mM
Δ F/F listing for selected molecules.
The reply should be a number, written without any unit.

Below, each entry is followed by its recorded Δ F/F result.
                               query_smiles                         system_under_test  reported_value
0  C[C@H](CCC(=O)NCC(=O)O)[C@H]1CC[C@H]2[C@@H]3[C@H](O)C[C@@H]4C[C@H](O)CC[C@]4(C)[C@H]3C[C@H](O)[C@]12C  HEK293T-Gα16gust44 cells transfected with empty vector (mock)        -0.01698
1  C[C@H](CCC(=O)NCCS(=O)(=O)O)[C@H]1CC[C@H]2[C@@H]3CC[C@@H]4C[C@H](O)CC[C@]4(C)[C@H]3CC[C@]12C  HEK293T-Gα16gust44 cells transfected with empty vector (mock)        -0.03147

Shifting focus to the molecule that follows.
Which Δ F/F value is on record for `C[C@H](CCC(=O)O)[C@H]1CC[C@H]2[C@@H]3[C@H](O)C[C@@H]4C[C@H](O)CC[C@]4(C)[C@H]3CC[C@]12C` ?
-0.007814
